Molecular target: T1, recombinant human activated Factor VII (FVIIa) (human, UniProt P08709 61-212; P08709 213-466, ten glutamate residues of the Gla domain may be gamma-carboxylated)
T1 construct: chains tethered by a disulfide bond; also called Factor VIIa; rFVIIa
T1 sequence 1: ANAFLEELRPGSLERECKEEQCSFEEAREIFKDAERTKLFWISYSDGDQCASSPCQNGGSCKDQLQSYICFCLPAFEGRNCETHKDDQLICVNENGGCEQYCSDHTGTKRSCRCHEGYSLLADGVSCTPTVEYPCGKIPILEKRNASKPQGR
T1 sequence 2: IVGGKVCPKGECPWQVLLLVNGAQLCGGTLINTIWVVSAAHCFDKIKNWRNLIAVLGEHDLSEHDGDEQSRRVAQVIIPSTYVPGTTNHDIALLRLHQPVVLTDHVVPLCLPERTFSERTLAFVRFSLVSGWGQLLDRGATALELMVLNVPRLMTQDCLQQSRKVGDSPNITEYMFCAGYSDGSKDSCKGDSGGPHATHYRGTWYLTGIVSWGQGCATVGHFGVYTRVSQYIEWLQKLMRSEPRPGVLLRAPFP
Assay: BLI (Fortebio)
metric: pKd
Bear in mind: pKd is minus log10 of a mol/L concentration; give just that figure.

stdin: Retrieve pKd measured for VH SEQ ID NO 570 / VL SEQ ID NO 486 (antibody, IgG4, V domains shown, humanized 11F2; IgG4 S228P/kappa) VH: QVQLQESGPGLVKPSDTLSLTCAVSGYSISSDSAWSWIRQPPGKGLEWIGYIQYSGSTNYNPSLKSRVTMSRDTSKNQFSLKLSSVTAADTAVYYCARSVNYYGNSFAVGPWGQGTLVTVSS VL: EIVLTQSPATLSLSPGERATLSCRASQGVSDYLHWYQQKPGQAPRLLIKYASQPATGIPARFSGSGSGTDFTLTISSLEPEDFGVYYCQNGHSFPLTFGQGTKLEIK and print it.
stdout: 9.00

stdin: Retrieve pKd measured for VH SEQ ID NO 546 / VL SEQ ID NO 398 (antibody, IgG4, V domains shown, humanized 11F2; IgG4 S228P/kappa) VH: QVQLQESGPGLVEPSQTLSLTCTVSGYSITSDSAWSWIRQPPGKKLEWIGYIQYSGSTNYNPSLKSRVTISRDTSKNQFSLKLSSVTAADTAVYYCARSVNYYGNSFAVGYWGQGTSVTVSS VL: EIVLTQSPATLSLSPGERATLSCRASQGVSDYLAWYQQKPGEAPRLLIKYTSQPATGIPARFSGSGSGTDFTLTISSLEPEDFAVYYCQNGHSFPLTFGQGTKLEIK and print it.
stdout: 7.96

stdin: Retrieve pKd measured for VH SEQ ID NO 514 / VL SEQ ID NO 454 (antibody, IgG4, V domains shown, humanized 11F2; IgG4 S228P/kappa) VH: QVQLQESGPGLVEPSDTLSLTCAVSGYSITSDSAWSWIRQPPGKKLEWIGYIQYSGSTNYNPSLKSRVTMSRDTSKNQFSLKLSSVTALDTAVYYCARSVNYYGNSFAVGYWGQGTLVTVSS VL: EIVLTQSPATLSLSPGERATLSCRASQGVSDYLHWYQQKPGEAPRLLIKYASQPATGIPARFSGSGSGTDFTLTISSLEPEDFAVYYCQNGHSFPLTFGQGTKLEIK and print it.
stdout: 8.89
